Biological target: Cytochrome P450 1A2 (Homo sapiens)
Sequence (P05177 whole entry): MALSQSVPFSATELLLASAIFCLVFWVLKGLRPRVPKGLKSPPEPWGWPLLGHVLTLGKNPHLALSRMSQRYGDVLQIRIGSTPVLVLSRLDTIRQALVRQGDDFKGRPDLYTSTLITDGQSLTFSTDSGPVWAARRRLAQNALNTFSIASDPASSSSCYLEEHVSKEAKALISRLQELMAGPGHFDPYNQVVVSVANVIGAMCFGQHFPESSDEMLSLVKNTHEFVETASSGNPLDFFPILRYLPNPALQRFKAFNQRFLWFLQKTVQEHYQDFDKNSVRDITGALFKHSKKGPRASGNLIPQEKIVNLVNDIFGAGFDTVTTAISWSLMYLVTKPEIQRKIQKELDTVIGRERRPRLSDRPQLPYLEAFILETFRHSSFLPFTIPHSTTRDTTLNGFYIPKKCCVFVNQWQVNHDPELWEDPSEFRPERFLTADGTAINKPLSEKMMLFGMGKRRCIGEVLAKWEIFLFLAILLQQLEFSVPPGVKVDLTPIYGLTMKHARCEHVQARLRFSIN
Assay read-out IC50 on Cytochrome P450 1A2 (Homo sapiens); records merged from the literature.

# example entries with known answers
COc1ccc(/C=C/C(=O)c2cccnc2)cc1O ... 1.7 µM
N#Cc1ccc(-n2ccnc2)c(NC(=O)c2cnc(-c3ccccc3)s2)c1 ... > 20 µM
CCn1c(-c2cnc(C)nc2)nc2c(N[C@H]3CCN(C(=O)C4CC4)C3)ncnc21 ... > 50 µM
Nc1nc2ccc(C(=O)NCc3ccc(Cl)c(Cl)c3)cc2s1 ... > 25 µM
CCOc1ccc(Oc2ncc(/C=C/[C@H](C)NC(C)=O)s2)cc1 ... > 20 µM

Please find the next compound below.
Find the measured IC50 of CC(=O)N1CCC[C@@H](Oc2cc(F)cc(NC(=O)Nc3cccnc3)c2)C1 and report it.
0.08 µM

###

Biological target: Cytochrome P450 1A2 (Homo sapiens, UniProt P05177)
Sequence (P05177 whole entry): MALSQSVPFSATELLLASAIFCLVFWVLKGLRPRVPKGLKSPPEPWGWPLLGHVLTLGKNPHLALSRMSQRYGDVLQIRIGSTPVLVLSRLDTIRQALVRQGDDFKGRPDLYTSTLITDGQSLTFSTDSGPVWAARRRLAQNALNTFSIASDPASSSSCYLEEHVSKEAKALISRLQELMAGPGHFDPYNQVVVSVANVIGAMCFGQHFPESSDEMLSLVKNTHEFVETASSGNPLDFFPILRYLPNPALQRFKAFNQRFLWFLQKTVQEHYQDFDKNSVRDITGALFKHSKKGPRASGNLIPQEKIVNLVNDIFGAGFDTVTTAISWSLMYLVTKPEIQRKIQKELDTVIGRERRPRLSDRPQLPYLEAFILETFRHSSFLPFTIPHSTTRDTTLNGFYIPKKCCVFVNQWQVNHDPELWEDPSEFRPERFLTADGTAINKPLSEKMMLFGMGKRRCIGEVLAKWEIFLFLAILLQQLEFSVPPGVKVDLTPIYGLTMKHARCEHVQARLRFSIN
Literature IC50 values, system: Cytochrome P450 1A2 (Homo sapiens, UniProt P05177).

Previously resolved entries follow.
Cn1nc(C2CC2)c2ccc(Nc3n[nH]c4cccnc34)cc21 ... 0.35 µM
CC(C)Oc1ccc(-c2nc(-c3cccc4c3OCCN(CCCC(=O)O)C4)no2)cc1Cl ... > 50 µM
COc1ccc2c(c1)c(CN1CCN(C)CC1)cn2S(=O)(=O)c1ccccc1Br.CS(=O)(=O)O.O ... > 10 µM
COc1cc(OC(C)C)cc(S(=O)(=O)c2ccc3c(c2)O[C@H]2CNCC[C@@H]32)c1.Cl (single isomer, unassigned; enantiomer 1) ... > 30 µM
CO[C@H]1CC[C@@H](n2nc(C)c(C(=O)N[C@@H](C)C(C)(C)C)c2NS(=O)(=O)c2ccc(C)cc2)CC1 ... > 10 µM

Return IC50 (reported value) for this compound: Cc1cccc(C)c1CNc1nccn2c(C)c(C)cc12
6.1 µM

In one line, give reported IC50 of the entry NC(=O)c1sc(-c2ccc(F)cc2)cc1N .
12 µM

Return IC50 for the following compound: Cc1nn(-c2ccc(F)cc2)c(NS(=O)(=O)c2ccc(C#N)cc2)c1C(=O)N[C@@H](C)C(C)(C)C
> 10 µM

Identify the reported IC50 for the following entry. Cl.N[C@@H]1CCC=C(c2ccc(F)cc2)[C@H]1CNc1cc(F)c(S(=O)(=O)Nc2cscn2)cc1Cl
> 50 µM

Determine from records and report IC50 for COc1cc([C@H]2CCN(CCO)C[C@@H]2O)ccc1Nc1ncc2ccc(-c3ccccc3OC)n2n1
> 30 µM

Name the recorded IC50 of the compound listed here: Cn1ncc2cc(Nc3n[nH]c4cccnc34)ccc21
0.53 µM

Report measured IC50; entry is COc1ccc(/C=C/c2cccc(OC)c2OC)c(OC)c1
0.247 µM

Find the measured IC50 of Cc1cccc(-c2[nH]c(NCc3ccc(Cl)cc3F)nc2-c2ccc3[nH]ncc3c2)n1 and report it.
8.8 µM

Quickly give me recorded IC50 for Cc1cc(C(=O)O)nn1Cc1cc(Br)ccc1OCc1ccccc1
21 µM

Report IC50 for O=C(c1ccccc1)N1CCc2oc(-c3ccc(F)cn3)nc2C1
> 50 µM

Specify IC50 for CC(C)OC(=O)[C@@H](Cc1ncccn1)OC(=O)Nc1c2c(cc3c1CCC3)CCC2 and stop.
> 30 µM

Dear colleague, please send me the reported IC50 for CC(C)(C)Cc1nsc2cc(Nc3n[nH]c4cccnc34)cnc12 when you can.
22.1 µM

###

Kindly find below IC50 information for Cytochrome P450 1A2 (Homo sapiens, UniProt P05177) taken from the literature.

CC(C)(N)C(=O)N[C@H](COCc1ccccc1)c1nnnn1[C@H](CC#N)COc1ccccn1 ... > 100 µM
Nc1ncnc2c(C(=O)Nc3cccc4c3c(Br)nn4Cc3cccnc3)csc12 ... < 0.25 µM
NCc1ccc2c(c1)C1(CCN(C(=O)c3ccc(C#Cc4ccccc4)o3)CC1)CO2 ... > 20 µM
CN(C)C(=O)c1ccc(OCCCCC[C@H]2CC[C@]3(CC2)COC(C)(C)C3)cc1 ... > 10 µM

Proceeding to the next compound to report its IC50.
Tell me its IC50 on Cytochrome P450 1A2 (Homo sapiens, UniProt P05177): Cn1nc(-c2ccc(C(=O)N3CCC[C@H]3CN3CCCC3)cc2)ccc1=O
> 30 µM

###

Target: Cytochrome P450 1A2 (Homo sapiens)
Sequence (P05177 whole entry): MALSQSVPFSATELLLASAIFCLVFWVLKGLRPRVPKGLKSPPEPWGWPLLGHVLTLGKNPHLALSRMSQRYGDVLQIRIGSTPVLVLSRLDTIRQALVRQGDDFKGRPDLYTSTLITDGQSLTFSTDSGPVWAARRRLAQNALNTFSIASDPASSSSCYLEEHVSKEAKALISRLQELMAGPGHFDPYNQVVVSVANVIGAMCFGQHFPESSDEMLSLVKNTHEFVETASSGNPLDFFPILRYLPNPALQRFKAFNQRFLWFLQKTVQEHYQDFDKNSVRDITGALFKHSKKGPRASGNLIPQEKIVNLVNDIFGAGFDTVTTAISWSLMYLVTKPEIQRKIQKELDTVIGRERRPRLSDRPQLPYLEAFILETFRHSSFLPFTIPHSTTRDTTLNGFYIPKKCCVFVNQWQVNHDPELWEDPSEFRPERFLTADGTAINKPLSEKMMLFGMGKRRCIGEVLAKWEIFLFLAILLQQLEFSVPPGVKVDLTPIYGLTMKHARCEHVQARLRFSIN
pIC50: −log10 of the molar value.
Field pIC50: reported value for Cytochrome P450 1A2 (Homo sapiens); entries drawn from several documents.

Worked cases, pIC50 given:
Cc1noc2c(F)cc(Nc3n[nH]c4ncccc34)cc12 ... > 7.00
COc1ccc2cc(-c3cnccc3N)ccc2c1 ... 5.85
Oc1ccc(-c2cc(-c3cccc(O)c3)cs2)cc1 ... < 5.40
CC(C)(C)c1ccc(SCCc2c[nH]cn2)cc1 ... 6.17
CCN(CC(O)(CNC(=O)c1cnn(-c2ccc(F)cc2)c1N)C(F)(F)F)C(=O)c1ccccc1S(C)(=O)=O (stereo unspecified) ... < 4.40
Cn1ncc2ccc(Nc3n[nH]c4cccnc34)cc21 ... 6.96
Clc1ccc(CN2CCO[C@H](CCc3ccccc3)C2)cc1 ... < 4.52
C=CC(=O)Nc1cc(Oc2nc(Nc3ccc(N4CCN(C)CC4)cc3OC)ccc2N2CCOCC2)ccc1C ... < 5.00
Cc1c(-c2ccc(C(F)(F)F)cc2Cl)ccc2nn([C@@H](CC(C)C)c3ccc(C(=O)NCCC(=O)O)cc3)cc12 ... < 5.00
Cc1ccncc1-c1cccc2c1cnn2-c1nccs1 ... 7.10

Look up and report measured pIC50 for this entry: Nc1cccnc1C(=O)Nc1ccc(N2C(=O)c3ccccc3C2=O)c(Cl)c1
< 4.52

Please report pIC50 for the following molecule: CC(=O)N[C@@H](C)/C=C/c1ccc(Oc2ccc(OCC3CC3)cc2Cl)nc1
< 4.70

Query pIC50 for C[C@H](Nc1cc(Cl)nc2c1cnn2[C@@H]1O[C@H](COP(=O)(O)CP(=O)(O)O)[C@@H](O)[C@H]1O)c1ccccc1F
< 4.00

// Input: FCCOc1nc(-c2ccc(Br)cc2)nc2ccccc12 . Output its pIC50 only.
< 6.00

Hello, please tell me recorded pIC50 for this one: CN1CCC(S(=O)(=O)c2c(Cl)ccc(NC(=O)Nc3cccc(Cl)c3Cl)c2O)CC1
< 5.00

Given O=C(c1ccc(F)c(F)c1)N1CCN2C(=O)c3ccccc3[C@@]12c1ccc(Cl)cc1 , respond with its pIC50.
4.60
